Exercise: state measured Kd for each of the binders provided.
Molecular target: T1, recombinant human activated Factor VII (FVIIa) (human, UniProt P08709 61-212; P08709 213-466, Gla domain: ten glutamate residues may be gamma-carboxylated)
T1 construct: two-chain form after cleavage between Arg152 and Ile153; light chain (Gla, EGF domains) and heavy chain (protease domain) tethered by a disulfide bond; also called rFVIIa; human FVIIa
T1 sequence 1: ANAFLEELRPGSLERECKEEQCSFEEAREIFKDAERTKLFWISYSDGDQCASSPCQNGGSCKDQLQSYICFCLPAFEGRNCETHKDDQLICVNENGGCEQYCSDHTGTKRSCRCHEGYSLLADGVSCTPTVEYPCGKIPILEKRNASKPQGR
T1 sequence 2: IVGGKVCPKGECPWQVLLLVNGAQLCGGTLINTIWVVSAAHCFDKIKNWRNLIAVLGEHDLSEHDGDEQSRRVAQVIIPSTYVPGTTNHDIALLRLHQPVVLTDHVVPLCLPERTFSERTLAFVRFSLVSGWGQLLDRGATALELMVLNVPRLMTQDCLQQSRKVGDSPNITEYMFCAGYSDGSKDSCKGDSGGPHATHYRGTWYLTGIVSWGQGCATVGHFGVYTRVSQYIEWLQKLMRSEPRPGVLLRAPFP
Test: SPR (Biacore T200), antibody captured on anti-murine IgG, FVIIa injected at 5-135 nM, 1:1 model
Please give a number only; it is taken to be in nM.

(Q) Which Kd value is on record for mAb0007 (antibody, V domains shown, fully murine, hybridoma-derived; also called 11F34) VH: DVQLQESGPGLVEPSQSLSLTCTVTGYSITSDCAWSWIRQFPGNKLEWMGYINYSGSTNYNPSLKSRISITRDTSKNQFFLRLNSVTGEDTATYYCARSVNYYGNSFAVGYWGQGTSVTVSS VL: DIVMTQSPATLSVTPGDRVSLSCRASQSISDYLHWYQHKSHESPRLLIKYVSQPISGIPSRFSGSGSGSEFTLSINSVEPEDVGVYYCQNGHSFPLTFGAGTKLELK ?
(A) 0.25

(Q) Param item = mAb0018 (antibody, V domains shown, fully murine, hybridoma-derived; also called 8F19) VH: QITLKESGPGILKPSQTLSLTCSFSGFSLSTSGLGVGWIRQTSGKGLEWLAHIWWDDDKYYYPPLKSQLTISKDTSRNQVFLKITSVDTADTATYYCARRAFYDGYYGPMEYWGQGTSVTVSS VL: DIVLSQSPSSLAVSVGEKVTMSCKSSQSLLYSSNQKNSLAWYQHKPGQSPKLLIYWASTRESGVPDRFTGSGSGTDFTLTISNVKAEDLAVYYCHQYYNYLLTFGPGTKLELK ; retrieve measured Kd.
(A) 9.3

(Q) Any idea what Kd was measured for mAb0544 (antibody, V domains shown, fully murine, hybridoma-derived; also called 11F9) VH: DVQLQESGPGLVKPSQSLSLTCTVTGYSITSDCAWNWIRQFPGNKLEWMGYINYSGSTNYNPSLKSRISITRDTSQNHFFLQLSSVTAEDTATYYCTRSVNYYGNSFAVGYWGQGISVTVSS VL: DIVMSQSPATLSVTPGDRVSLSCRTSQDIGDYLHWYRQKSHESPRLLIKYTSQSVSGIPSRFSGSGSGSDFTLSINTVEPEDVGLYYCQNGHSFPLTFGTGTRLELK ?
(A) 0.27
